In this section, each of the molecules is paired with its reported IC50.
# subjectOfTest: human leukocyte elastase (HLE) (Homo sapiens, UniProt P08246)
# Construct: the mixed solution was subjected to density gradient centrifugation, thereby obtaining neutrophiles
# Sequence (P08246 30-247 limits assumed): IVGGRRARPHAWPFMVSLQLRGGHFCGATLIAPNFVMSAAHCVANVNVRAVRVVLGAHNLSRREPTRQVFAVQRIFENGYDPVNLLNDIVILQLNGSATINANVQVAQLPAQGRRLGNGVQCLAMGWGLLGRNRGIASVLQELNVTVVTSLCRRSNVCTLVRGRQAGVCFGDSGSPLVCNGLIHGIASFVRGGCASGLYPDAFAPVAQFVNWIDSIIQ
# methodNotes: HLE inhibitory activity (synthetic substrate, pNA release, absorbance 405 nm)
# condition: pH 8.6; HLE 5.63 nM, substrate 0.2625 mM; 37°C; read-out: IC₅₀ value HLE

{"molecule": "Cc1cccc2nc([C@@H](NC(=O)COC(c3ccccc3)c3ccccc3)C(C)C)oc(=O)c12", "subjectOfTest": "human leukocyte elastase (HLE) (Homo sapiens, UniProt P08246)", "unitsText": "nM", "IC50": 220}
{"molecule": "Cc1cccc2nc([C@@H](NC(=O)CCC(c3ccccc3)c3ccccc3)C(C)C)oc(=O)c12", "subjectOfTest": "human leukocyte elastase (HLE) (Homo sapiens, UniProt P08246)", "unitsText": "nM", "IC50": 400}
{"molecule": "Cc1cccc2nc([C@@H](NC(=O)COC(c3ccccc3)c3ccccn3)C(C)C)oc(=O)c12 (mixture of isomers)", "subjectOfTest": "human leukocyte elastase (HLE) (Homo sapiens, UniProt P08246)", "unitsText": "nM", "IC50": 340}
{"molecule": "Cc1cccc2nc([C@@H](NC(=O)CON=C(c3ccccc3)c3ccccn3)C(C)C)oc(=O)c12", "subjectOfTest": "human leukocyte elastase (HLE) (Homo sapiens, UniProt P08246)", "unitsText": "nM", "IC50": 550}
{"molecule": "Cc1cccc2nc([C@@H](NC(=O)CN(c3ccccc3)c3ccccc3)C(C)C)oc(=O)c12", "subjectOfTest": "human leukocyte elastase (HLE) (Homo sapiens, UniProt P08246)", "unitsText": "nM", "IC50": 790}
{"molecule": "Cc1cccc2nc([C@@H](NC(=O)COC(c3ccccn3)c3ccccn3)C(C)C)oc(=O)c12", "subjectOfTest": "human leukocyte elastase (HLE) (Homo sapiens, UniProt P08246)", "unitsText": "nM", "IC50": 550}
{"molecule": "Cc1cccc2nc([C@@H](NC(=O)OCC(c3ccccc3)c3ccccc3)C(C)C)oc(=O)c12", "subjectOfTest": "human leukocyte elastase (HLE) (Homo sapiens, UniProt P08246)", "unitsText": "nM", "IC50": 70}
{"molecule": "Cc1cccc2nc([C@@H](NC(=O)OCC34CC5CC(CC(C5)C3)C4)C(C)C)oc(=O)c12", "subjectOfTest": "human leukocyte elastase (HLE) (Homo sapiens, UniProt P08246)", "unitsText": "nM", "IC50": 210}

###

# subjectOfTest: human cathepsin G (HCG) (Homo sapiens)
# Construct: purchased Cosmo Bio Inc
# Sequence (P08311 21-244): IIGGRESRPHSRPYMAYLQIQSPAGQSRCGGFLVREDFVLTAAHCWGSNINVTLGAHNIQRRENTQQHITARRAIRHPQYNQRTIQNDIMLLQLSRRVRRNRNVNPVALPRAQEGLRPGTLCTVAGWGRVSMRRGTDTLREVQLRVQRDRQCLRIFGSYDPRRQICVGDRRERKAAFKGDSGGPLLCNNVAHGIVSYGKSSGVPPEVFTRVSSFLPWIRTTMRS
# methodNotes: HCG inhibitory activity (synthetic substrate, pNA release)
# Type: biochemical
# condition: pH 7.5; HCG 50 nM, substrate 0.5 mM; read-out: IC₅₀ value HCG
quantityName: IC50

{"smilesEntry": "Cc1cccc2nc([C@@H](NC(=O)OCC34CC5CC(CC(C5)C3)C4)C(C)C)oc(=O)c12", "reportedMeasurement": "> 25 µM"}
